Molecular target: KOP (Homo sapiens, UniProt P41145)
Sequence (P41145 whole entry): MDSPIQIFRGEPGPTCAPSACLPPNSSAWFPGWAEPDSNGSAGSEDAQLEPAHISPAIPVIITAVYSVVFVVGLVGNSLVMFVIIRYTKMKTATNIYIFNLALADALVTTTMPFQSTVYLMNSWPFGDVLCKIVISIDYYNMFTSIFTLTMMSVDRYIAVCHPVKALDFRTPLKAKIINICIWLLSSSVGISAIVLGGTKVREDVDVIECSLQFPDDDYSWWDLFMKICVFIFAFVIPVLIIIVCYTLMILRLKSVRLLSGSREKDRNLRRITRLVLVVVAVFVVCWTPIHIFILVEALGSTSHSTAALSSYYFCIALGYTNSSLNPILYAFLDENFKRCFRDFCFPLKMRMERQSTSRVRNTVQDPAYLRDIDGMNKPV
Test: In vitro cAMP activity at KOP (Table 10)
Assay type: cell-based
Conditions: cAMP inhibition, four-parameter regression, normalised to U50488H
*1 amine or outer side, *2 acyl side, *3 side chain or, on linkers, in order; H or OH if unused. Where a SMILES comes first, the peptide text is derived from it. Bridges are numbered along the chain shown (N, C = ends). [ ]: non-standard residue; d: D form. ξ: configuration not given here. NHCH2CMe2S = CC(C)(CN[*:1])S[*:2]; X1 = CC(C)(CN[*:2])S[*:1]; ξC = NC(CS)C(=O)O
REPORTED METRIC: EC50

{"MOLECULE": "CC1(C)CNC(=O)C[C@H](NC(=O)[C@@H](N)Cc2ccc(O)cc2)C(=O)NCC(=O)N[C@@H](Cc2ccccc2)C(=O)NC(C(=O)N[C@@H](CCCNC(=N)N)C(=O)N[C@@H](CCCNC(=N)N)C(N)=O)CSS1 (stereo partly drawn) [CP2, c(Tyr-Asp-Gly-Phe-SSa-Arg-Arg)] (H-YDGF[ξC]RR-NH2; linker 2-5 via NHCH2CMe2S; N-terminus assumed)", "REPORTED METRIC": "EC50", "RESULT": "320 nM"}
{"MOLECULE": "CC1(C)CNC(=O)C[C@@H](C(=O)N[C@@H](CCCNC(=N)N)C(=O)N[C@@H](CCCNC(=N)N)C(N)=O)NC(=O)[C@H](Cc2ccccc2)NC(=O)C(NC(=O)CNC(=O)[C@@H](N)Cc2ccc(O)cc2)CSS1 (stereo partly drawn) [CP3, c(Tyr-Gly-SSa-Phe-Asp-Arg-Arg)] (H-YG[ξC]FDRR-NH2; linker 3-5 via X1; N-terminus assumed)", "REPORTED METRIC": "EC50", "RESULT": "> 10000 nM"}

----------
Assay: Serum stability
Assay type: in vitro ADME
Settings: rat, serum, 37° C., LC-MS (Table 8)
*1 amine or outer side, *2 acyl side, *3 side chain or, on linkers, in order; H or OH if unused. Where a SMILES comes first, the peptide text is derived from it. Bridges are numbered along the chain shown (N, C = ends). [ ]: non-standard residue; d: D form. ξ: configuration not given here. NHCH2CMe2S = CC(C)(CN[*:1])S[*:2]; ξC = NC(CS)C(=O)O

{"COMPOUND": "CC[C@H](C)[C@H](NC(=O)C1CSSC(C)(C)CNC(=O)C[C@@H](NC(=O)[C@H](Cc2ccccc2)NC(=O)CNC(=O)CNC(=O)[C@@H](N)Cc2ccc(O)cc2)C(=O)N[C@@H](CCCNC(=N)N)C(=O)N1)C(=O)N[C@@H](CCCNC(=N)N)C(=O)N1CCC[C@H]1C(=O)N[C@@H](CCCCN)C(N)=O (stereo partly shown) [DP-11-06] (H-YGGF[dD]R[ξC]IRPK-NH2; linker 5-7 via NHCH2CMe2S; N-terminus assumed)", "UNIT TAG": "min", "half-life": 30}

----------
Assay: Serum stability
Type: in vitro ADME
Details: rat, after 1 hr, read-out: Peptide still present in serum
*1 amine or outer side, *2 acyl side, *3 side chain or, on linkers, in order; H or OH if unused. Where a SMILES comes first, the peptide text is derived from it. Bridges are numbered along the chain shown (N, C = ends). [ ]: non-standard residue; d: D form. NHCH2CMe2S = CC(C)(CN[*:1])S[*:2]
REPORTED METRIC: remaining at 1 h, 0.125 mg/mL

{"MOLECULE": "CC1(C)CNC(=O)C[C@@H](NC(=O)[C@@H](N)Cc2ccc(O)cc2)C(=O)NCC(=O)N[C@@H](Cc2ccccc2)C(=O)N[C@H](C(=O)N[C@@H](CCCNC(=N)N)C(=O)N[C@@H](CCCNC(=N)N)C(N)=O)CSS1 [DP-7-12, c(Tyr-D(Asp)-Gly-Phe-SSa-Arg-Arg)] (H-Y[dD]GFCRR-NH2; linker 2-5 via NHCH2CMe2S)", "REPORTED METRIC": "remaining at 1 h, 0.125 mg/mL", "RESULT": "~67%"}

----------
Biological target: bovine pancreatic trypsin (Bos taurus, UniProt P00760)
Construct: from tissue; host or cells: bovine pancreas
Sequence (P00760 24-246): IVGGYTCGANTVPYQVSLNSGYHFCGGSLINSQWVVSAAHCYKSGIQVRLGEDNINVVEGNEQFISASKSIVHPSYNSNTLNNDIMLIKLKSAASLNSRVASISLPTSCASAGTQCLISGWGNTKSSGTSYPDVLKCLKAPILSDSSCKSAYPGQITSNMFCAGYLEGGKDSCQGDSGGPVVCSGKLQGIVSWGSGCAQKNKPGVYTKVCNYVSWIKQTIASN
Assay: Trypsin stability assay (Table 10)
Assay type: in vitro ADME
Conditions: bovine pancreatic trypsin 2.5 μg/mL, 37° C., One Phase Decay; read-out: Stability (t1/2, mins) Trypsin
Text: FIG. 20 is a series of graphs showing the stability of selected peptides in a trypsin (left-hand graphs) and plasma (right-hand graphs) stability assay (data normalised to concentration of each peptide at t=0, determined by LCMS, within each substrate; data analysed using One Phase Decay nonlinear regression in Prism software and each experiment performed in triplicate; mean+/−SEM); Plasma was collected in house from adult mixed-gender Wistar rats, prepared using 2% EDTA as per standard practice. […]
*1 amine or outer side, *2 acyl side, *3 side chain or, on linkers, in order; H or OH if unused. Where a SMILES comes first, the peptide text is derived from it. Bridges are numbered along the chain shown (N, C = ends). [ ]: non-standard residue; d: D form. ξ: configuration not given here. Phe(4-NO2) = N[C@@H](Cc1ccc([N+](=O)[O-])cc1)C(=O)O; NHCH2CMe2S = CC(C)(CN[*:1])S[*:2]; NMeR = CN[C@@H](CCCNC(=N)N)C(=O)O; X1 = CC(C)(CN[*:2])S[*:1]; ξC = NC(CS)C(=O)O; Sar = CNCC(=O)O
Quick list: half-life per entry.
REPORTED METRIC: half-life

{"MOLECULE": "CC(C)C[C@H](NC(=O)[C@H](Cc1ccc([N+](=O)[O-])cc1)NC(=O)CN(C)C(=O)[C@@H](N)Cc1ccc(O)cc1)C(=O)N[C@@H](CCCNC(=N)N)C(=O)N(C)[C@@H](CCCNC(=N)N)C(=O)NC1CSSC(C)(C)CNC(=O)C[C@@H](C(=O)N[C@@H](CCCCN)C(N)=O)NC(=O)[C@H](CCCNC(=N)N)NC1=O (some centres unmarked) [CP12] (H-Y[Sar][Phe(4-NO2)]LR[NMeR][ξC]RDK-NH2; linker 7-9 via X1; N-terminus assumed)", "RESULT": "0.019 min"}
{"MOLECULE": "CC1(C)CNC(=O)C[C@@H](NC(=O)CNC(=O)[C@@H](N)Cc2ccc(O)cc2)C(=O)N[C@@H](Cc2ccccc2)C(=O)N[C@H](C(=O)N[C@@H](CCCNC(=N)N)C(=O)N[C@@H](CCCNC(=N)N)C(N)=O)CSS1 [DP-7-14, c(Tyr-Gly-D(Asp)-Phe-SSa-Arg-Arg)] (H-YG[dD]FCRR-NH2; linker 3-5 via NHCH2CMe2S)", "RESULT": "< 0.01 min"}
{"MOLECULE": "CC1(C)CNC(=O)C[C@H](NC(=O)[C@@H](N)Cc2ccc(O)cc2)C(=O)NCC(=O)N[C@@H](Cc2ccccc2)C(=O)NC(C(=O)N[C@@H](CCCNC(=N)N)C(=O)N[C@@H](CCCNC(=N)N)C(N)=O)CSS1 (stereo partly drawn) [CP2, c(Tyr-Asp-Gly-Phe-SSa-Arg-Arg)] (H-YDGF[ξC]RR-NH2; linker 2-5 via NHCH2CMe2S; N-terminus assumed)", "RESULT": "< 0.01 min"}
{"MOLECULE": "CC1(C)CNC(=O)C[C@H](C(=O)N[C@@H](CCCNC(=N)N)C(=O)N[C@@H](CCCNC(=N)N)C(N)=O)NC(=O)[C@H](Cc2ccccc2)NC(=O)C(NC(=O)CNC(=O)[C@@H](N)Cc2ccc(O)cc2)CSS1 (stereo partly drawn) [DP-7-13, c(Tyr-Gly-SSa-Phe-D(Asp)-Arg-Arg)] (H-YG[ξC]F[dD]RR-NH2; linker 3-5 via X1; N-terminus assumed)", "RESULT": "< 0.01 min"}
{"MOLECULE": "CC1(C)CNC(=O)C[C@@H](C(=O)N[C@@H](CCCNC(=N)N)C(=O)N[C@@H](CCCNC(=N)N)C(N)=O)NC(=O)[C@H](Cc2ccccc2)NC(=O)CNC(=O)C(NC(=O)[C@@H](N)Cc2ccc(O)cc2)CSS1 (some centres unmarked)", "RESULT": "< 0.01 min"}

----------
Biological target: DOP (Homo sapiens)
Sequence (P41143 whole entry): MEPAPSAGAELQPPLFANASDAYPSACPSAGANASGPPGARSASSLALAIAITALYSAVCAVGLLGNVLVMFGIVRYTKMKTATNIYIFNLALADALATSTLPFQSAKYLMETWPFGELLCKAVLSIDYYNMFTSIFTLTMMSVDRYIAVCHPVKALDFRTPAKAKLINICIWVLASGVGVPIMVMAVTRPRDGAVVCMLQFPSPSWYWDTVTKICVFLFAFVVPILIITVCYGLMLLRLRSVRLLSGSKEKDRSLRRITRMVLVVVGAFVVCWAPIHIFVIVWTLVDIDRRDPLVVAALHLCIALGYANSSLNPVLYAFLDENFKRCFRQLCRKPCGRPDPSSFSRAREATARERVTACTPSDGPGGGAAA
Assay: In vitro cAMP activity at DOP (Table 10)
Assay type: cell-based
Conditions: cAMP inhibition, four-parameter regression
*1 amine or outer side, *2 acyl side, *3 side chain or, on linkers, in order; H or OH if unused. Where a SMILES comes first, the peptide text is derived from it. Bridges are numbered along the chain shown (N, C = ends). [ ]: non-standard residue; d: D form. ξ: configuration not given here. Phe(4-Cl) = N[C@@H](Cc1ccc(Cl)cc1)C(=O)O; X1 = CC(C)(CN[*:2])S[*:1]; ξC = NC(CS)C(=O)O; Sar = CNCC(=O)O
REPORTED METRIC: EC50

{"COMPOUND": "CC1(C)CNC(=O)C[C@@H](C(=O)N[C@@H](CCCNC(=N)N)C(=O)N[C@@H](CCCNC(=N)N)C(N)=O)NC(=O)[C@H](Cc2ccccc2)NC(=O)C(NC(=O)CNC(=O)[C@@H](N)Cc2ccc(O)cc2)CSS1 (stereo partly drawn) [CP3, c(Tyr-Gly-SSa-Phe-Asp-Arg-Arg)] (H-YG[ξC]FDRR-NH2; linker 3-5 via X1; N-terminus assumed)", "RESULT": "> 10000 nM"}
{"COMPOUND": "CC(C)C[C@H](NC(=O)[C@H](Cc1ccc(Cl)cc1)NC(=O)CN(C)C(=O)[C@@H](N)Cc1ccc(O)cc1)C(=O)N[C@@H](CCCNC(=N)N)C(=O)N[C@H](CCCNC(=N)N)C(=O)N[C@H]1CSSC(C)(C)CNC(=O)C[C@@H](C(N)=O)NC1=O [CP9] (H-Y[Sar][Phe(4-Cl)]LR[dR]CD-NH2; linker 7-8 via X1)", "RESULT": "> 10000 nM"}
